Entries and their % inhibition at 10 μM values follow.
- systemUnderTest: Human glycogen phosphorylase a (Homo sapiens, UniProt P06737)
- Sequence (P06737 whole entry): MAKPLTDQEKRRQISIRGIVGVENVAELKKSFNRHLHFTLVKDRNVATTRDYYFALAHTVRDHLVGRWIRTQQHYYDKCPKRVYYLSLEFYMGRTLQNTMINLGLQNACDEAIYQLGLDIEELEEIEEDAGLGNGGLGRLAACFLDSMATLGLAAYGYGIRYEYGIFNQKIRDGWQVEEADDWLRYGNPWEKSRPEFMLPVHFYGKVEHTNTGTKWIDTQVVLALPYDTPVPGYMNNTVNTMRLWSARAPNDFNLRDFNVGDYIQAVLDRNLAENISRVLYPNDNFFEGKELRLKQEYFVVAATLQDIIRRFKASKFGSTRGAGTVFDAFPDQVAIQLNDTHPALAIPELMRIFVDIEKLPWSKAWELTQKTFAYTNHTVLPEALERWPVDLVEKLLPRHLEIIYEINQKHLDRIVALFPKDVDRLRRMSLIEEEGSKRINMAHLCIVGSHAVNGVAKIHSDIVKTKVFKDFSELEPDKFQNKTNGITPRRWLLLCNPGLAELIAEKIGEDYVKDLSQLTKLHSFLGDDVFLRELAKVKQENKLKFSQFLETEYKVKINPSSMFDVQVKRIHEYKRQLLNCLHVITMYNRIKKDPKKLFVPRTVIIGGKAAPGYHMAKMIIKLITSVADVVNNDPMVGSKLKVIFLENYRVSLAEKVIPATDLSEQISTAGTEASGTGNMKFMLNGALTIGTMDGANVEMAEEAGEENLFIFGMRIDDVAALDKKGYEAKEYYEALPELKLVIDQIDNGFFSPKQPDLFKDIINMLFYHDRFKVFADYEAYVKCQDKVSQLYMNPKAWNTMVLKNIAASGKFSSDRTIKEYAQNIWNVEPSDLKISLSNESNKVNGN
- procedureSummary: Glycogen phosphorylase a activity test
- Assay type: biochemical
- runConditions: 10 μM concentration of the test substance; GPa measured in the reverse direction, in vitro
- Protocol: Glycogen Phosphorylase a Activity Test The effect of compounds on the activity of the active form of glycogen phosphorylase (GPa) was measured in the reverse direction by monitoring the synthesis of glycogen from glucose 1-phosphate by determining the release of inorganic phosphate. […] The basal value of the activity of the glycogen phosphorylase a in the absence of test substance was determined by adding 10 μl of buffer solution T (0.1% DMSO). […]
outcomeMeasure: % inhibition at 10 μM (%)

[[record]]
smilescode = "COc1ccc(C(=O)O)cc1NC(=O)NC(=O)c1cc(Cl)ccc1Cl"
testresult = 81

[[record]]
smilescode = "NC(CO)(CO)CO.O=C(NC(=O)c1ccc(Cl)cc1Cl)Nc1cc(C(=O)O)ccc1Oc1ccccc1"
testresult = 65

[[record]]
smilescode = "COc1ccc(C(=O)O)cc1NC(=O)NC(=O)c1ccc(Cl)c(Cl)c1"
testresult = 41

[[record]]
smilescode = "CCCCOc1ccc(C(=O)O)cc1NC(=O)NC(=O)c1ccc(Cl)cc1Cl"
testresult = 64

[[record]]
smilescode = "O=C(NC(=O)c1ccc(F)cc1F)Nc1cc(C(=O)O)ccc1Cl"
testresult = 52

[[record]]
smilescode = "COc1ccc(C(=O)O)cc1NC(=O)NC(=O)c1ccccc1C"
testresult = 77

[[record]]
smilescode = "NC(CO)(CO)CO.O=C(NC(=O)c1cc(Cl)ccc1Cl)Nc1cc(C(=O)O)ccc1Cl"
testresult = 54

[[record]]
smilescode = "O=C(NC(=O)c1ccc(Cl)cc1Cl)Nc1cc(C(=O)O)ccc1F"
testresult = 75

[[record]]
smilescode = "COc1ccc(C(=O)O)cc1NC(=O)NC(=O)c1ccc(Cl)cc1F"
testresult = 48

[[record]]
smilescode = "CCCOc1ccc(C(=O)O)cc1NC(=O)NC(=O)c1ccc(Cl)cc1Cl"
testresult = 62

[[record]]
smilescode = "COCCOc1ccc(C(=O)O)cc1NC(=O)NC(=O)c1ccc(Cl)cc1Cl"
testresult = 72

[[record]]
smilescode = "O=C(NC(=O)c1cc(Cl)ccc1Cl)Nc1cc(C(=O)O)ccc1Cl"
testresult = 57

[[record]]
smilescode = "O=C(NC(=O)c1ccc(F)cc1Cl)Nc1cc(C(=O)O)ccc1C(F)(F)F"
testresult = 49

[[record]]
smilescode = "CCOc1ccc(C(=O)O)cc1NC(=O)NC(=O)c1ccc(Cl)cc1Cl"
testresult = 86

[[record]]
smilescode = "O=C(NC(=O)c1ccccc1Cl)Nc1cc(C(=O)O)ccc1Cl"
testresult = 49

